Target: PRMT5 (Homo sapiens, UniProt O14744)
Construct: purchased Viva (custom protein)
Sequence (O14744 whole entry): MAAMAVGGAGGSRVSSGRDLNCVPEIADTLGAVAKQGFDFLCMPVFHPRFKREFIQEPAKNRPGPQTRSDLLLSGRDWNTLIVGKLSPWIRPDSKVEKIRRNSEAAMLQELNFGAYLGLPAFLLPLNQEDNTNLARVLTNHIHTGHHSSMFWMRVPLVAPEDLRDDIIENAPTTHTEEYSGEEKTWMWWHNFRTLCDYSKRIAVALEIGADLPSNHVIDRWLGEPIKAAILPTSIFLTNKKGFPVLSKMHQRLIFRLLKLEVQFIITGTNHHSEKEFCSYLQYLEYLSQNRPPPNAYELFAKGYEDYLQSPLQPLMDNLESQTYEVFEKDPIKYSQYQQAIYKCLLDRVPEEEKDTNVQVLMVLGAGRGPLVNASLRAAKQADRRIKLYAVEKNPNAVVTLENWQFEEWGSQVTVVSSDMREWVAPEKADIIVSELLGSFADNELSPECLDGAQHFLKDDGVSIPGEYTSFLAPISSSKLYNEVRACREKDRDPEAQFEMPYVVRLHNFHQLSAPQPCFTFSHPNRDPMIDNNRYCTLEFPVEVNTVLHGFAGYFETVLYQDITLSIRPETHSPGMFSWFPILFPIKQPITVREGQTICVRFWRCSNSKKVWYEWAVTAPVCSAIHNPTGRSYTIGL
Sequence (Q9BQA1 whole entry partner): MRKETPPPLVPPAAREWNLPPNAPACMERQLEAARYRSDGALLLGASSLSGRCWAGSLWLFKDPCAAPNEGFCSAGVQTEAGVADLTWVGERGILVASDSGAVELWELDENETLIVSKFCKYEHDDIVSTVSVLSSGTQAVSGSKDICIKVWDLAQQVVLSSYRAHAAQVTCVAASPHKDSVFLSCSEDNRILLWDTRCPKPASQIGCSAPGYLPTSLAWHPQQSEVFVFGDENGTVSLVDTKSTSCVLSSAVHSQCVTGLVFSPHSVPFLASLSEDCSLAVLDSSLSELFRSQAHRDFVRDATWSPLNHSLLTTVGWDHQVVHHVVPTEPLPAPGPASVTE
Assay: PRMT5 biochemical IC50 assay with no cofactor
Conditions: PRMT5, no cofactor; read-out: No Cofactor/rel IC50
List of IC50 values.

>>> recorded_value("COc1ncc(NC(=O)C(=O)N2C[C@@H](C)CC[C@@H]2c2cc3cn[nH]c3s2)cc1C(N)=O (single isomer, unassigned) [Compound 968]")
"< 50 nM"

CCc1cc(NC(=O)C(=O)N2C[C@H](C)[C@H](OC)C[C@H]2c2ccc(N3CCN(C)CC3)cc2)cnc1N (single isomer, unassigned) [Compound 1089] tested on PRMT5 (Homo sapiens, UniProt O14744) gave IC50: 50 to 500 nM

Cc1cc([C@@H]2CC[C@@H](C)CN2C(=O)C(=O)Nc2cnc(N)c(C)c2)ccn1 (single isomer, unassigned) [Compound 608] tested on PRMT5 (Homo sapiens, UniProt O14744) gave IC50: < 50 nM
